Could you please report measured Plant response rating, Ryegrass, Italian for the items listed next?
# System: ryegrass, Italian (Italian ryegrass, Lolium multiflorum)
# assay-procedure: Test A postemergence
# Format: in vivo
# conditions-used: Postemergence, 500 g ai/ha; 0 to 100 scale where 0 is no effect and 100 is complete control
# Source text: […]
One number for each entry.

Here are 4 compounds together with their reported answers.
compound: C=C(Cl)CN1CC(c2cccc(C(F)(F)F)c2)C(C(=O)Nc2ccccc2F)C1=O (centres unmarked)
Plant response rating, Ryegrass, Italian: 0
--
compound: CN1CC(c2ccc(Br)cc2)C(C(=O)Nc2ccc(F)cc2F)C1=O (centres unmarked)
Plant response rating, Ryegrass, Italian: 60
--
compound: O=C1NCC(c2ccc(C(F)(F)F)c(F)c2)C1C(=O)Nc1ccccc1F (racemic)
Plant response rating, Ryegrass, Italian: 40
--
compound: O=C1NCC(c2ccc(C3CC3)cc2)C1C(=O)Nc1cccc(F)c1F (racemic)
Plant response rating, Ryegrass, Italian: 20

# input for lookup
Ask: Report Plant response rating, Ryegrass, Italian for O=C1NCC(c2cc(F)c(F)cc2F)C1C(=O)Nc1ccccc1F (racemic)
Reply: 0

----------
# Tested on: rice (Oryra sativa)
# assay-procedure: Test B flooded paddy test
# Type: in vivo
# conditions-used: Flood, 250 g ai/ha; 0 to 100 scale where 0 is no effect and 100 is complete control; 13 to 15 d
Would you mind telling me the reported Plant response rating, Rice of each entry?
Answers are plain numbers.

Consider the following items and state reported Plant response rating, Rice for each.
1. O=C1NCC(c2cccc(C(F)(F)F)c2F)C1C(=O)Nc1ccccc1F (centres unmarked)
2. O=C1NCC(c2cc(F)c(F)cc2F)C1C(=O)Nc1cccc(F)c1F (racemic)
3. CN1CC(c2cccc(OC(F)(F)C(F)F)c2)C(C(=O)Nc2ccc(F)c(F)c2F)C1=O (centres unmarked)
4. CN1CC(c2cccc(C(F)(F)F)c2)C(C(=O)Nc2ccccc2C(F)(F)F)C1=O (centres unmarked)
5. CN1CC(c2ccc(C(C)(F)F)cc2)C(C(=O)Nc2cccc(F)c2F)C1=O (centres unmarked)
6. CC(C)c1ccc(C2CNC(=O)C2C(=O)Nc2cccc(F)c2F)cc1 (centres unmarked)
7. O=C(Nc1ccccc1F)C1C(=O)N(CC=CBr)CC1c1cccc(C(F)(F)F)c1 (centres unmarked)
8. CN1CC(c2ccc(F)c(C(F)(F)F)c2)C(C(=O)Nc2ccccc2F)C1=O (centres unmarked)

Reply:
1: 0; 2: 50; 3: 15; 4: 10; 5: 0; 6: 0; 7: 0; 8: 40

----------
# System: redroot pigweed (Amaranthus retroflexus)
# assay-procedure: Test G Post-Emergence Protocol
# Format: in vivo
# conditions-used: Amaranthus retroflexus, post-emergence, 312 h, 62.5 g ai/ha, evaluated after 13 days, 100=total damage to plant, 0=no damage to plant, read-out: Pigweed, Redroot damage rating
readout-type: pest or weed control at 62.5 g/ha (%)
Answers are plain numbers, in %.

compound: CN1C[C@H](c2ccc(C(F)(F)F)cc2)[C@@H](C(=O)Nc2cccc3ccsc23)C1=O (racemic)
test-system: redroot pigweed (Amaranthus retroflexus)
reported-value: 0
//
compound: C=C(C)c1ccccc1NC(=O)[C@H]1C(=O)N(C)C[C@@H]1c1cccc(C(F)(F)F)c1 (racemic)
test-system: redroot pigweed (Amaranthus retroflexus)
reported-value: 0
//
compound: COC(=O)c1cc([C@H]2CN(C)C(=O)[C@@H]2C(=O)Nc2cccc(F)c2F)ccc1C (racemic)
test-system: redroot pigweed (Amaranthus retroflexus)
reported-value: 10
//
compound: CN1CCC(NC(=O)[C@H]2C(=O)N(C)C[C@@H]2c2ccc(C(F)(F)F)cc2)C1=O (mixture of isomers)
test-system: redroot pigweed (Amaranthus retroflexus)
reported-value: 0
//
compound: Cc1cc([C@H]2CN(C)C(=O)[C@@H]2C(=O)Nc2ccccc2S(C)(=O)=O)cc(C(F)(F)F)c1 (racemic)
test-system: redroot pigweed (Amaranthus retroflexus)
reported-value: 20
//
compound: CN1CC(c2ccc(Cl)c([N+](=O)[O-])c2)C(C(=O)Nc2cccc(F)c2F)C1=O (centres unmarked)
test-system: redroot pigweed (Amaranthus retroflexus)
reported-value: 50
//
compound: CN1C[C@H](c2cccc(C(F)(F)F)c2)[C@@H](C(=O)Nc2cccnc2F)C1=O (racemic)
test-system: redroot pigweed (Amaranthus retroflexus)
reported-value: 20
//
compound: CN1C[C@H](c2ccc(C(F)(F)F)cc2)[C@@H](C(=O)Nc2cnccc2[N+](=O)[O-])C1=O (racemic)
test-system: redroot pigweed (Amaranthus retroflexus)
reported-value: 0
//
compound: CN1C[C@H](c2ccc(Cl)cc2)[C@@H](C(=O)Nc2cnccc2C(F)(F)F)C1=O
test-system: redroot pigweed (Amaranthus retroflexus)
reported-value: 20
//
compound: CN1CC(c2cc(F)c(Cl)c(F)c2)C(C(=O)Nc2cccc(F)c2F)C1=O (centres unmarked)
test-system: redroot pigweed (Amaranthus retroflexus)
reported-value: 60

Next, consider the following compound.
Ask: Return the recorded pest or weed control at 62.5 g/ha value; entry: CN1C[C@@H](c2ccc(C(F)(F)F)cc2)[C@H](C(=O)Nc2cscn2)C1=O (racemic)
Reply: 0
